# System: T-47D breast
# protocol.notes: NCI tumour cell line growth inhibition, 48 h; in the data active means GI50 below about 0.43 µM; inactive means the rest
// one of 1 (yes) = active, 0 (no) = inactive, no free text

Completed entries (count: 5):
compound	category
CC(=O)N1N=C2/C(=C/c3ccc(Cl)cc3)CC(C)CC2C1c1ccc(Cl)cc1 (stereo unspecified)	0 (no)
O=C(Nc1ccc(/C=C/c2ccc(NC(=O)c3cc(S(=O)(=O)O)c4cccnc4c3O)cc2S(=O)(=O)O)c(S(=O)(=O)O)c1)c1cc(S(=O)(=O)O)c2cccnc2c1O	0 (no)
COc1cc2c(cc1Nc1nc(Nc3cccc(F)c3C(N)=O)c3cc[nH]c3n1)N(C(=O)CN1CCN(C(C)C)CC1)CC2	0 (no)
CCCCCCCCCCCCCCCCC(=O)O.CCCCCCCCCCCCCCCCCC(=O)O.CCCCCCCCCCCCCCCCCC(=O)O.CCCCCCCCCCCCCCCCCC(=O)O.CCCCCCCCCCCCCCCCCC(=O)O.CO[CH-]OC12COC1CC(O)C1(C)C(O)C(OC(C)O)C3=C(C)C(OC(=O)C(O)C([NH-])c4ccccc4)CC(O)(C(OC(=O)c4ccccc4)C21)C3(C)C.[Cu+].[Zn].[Zn].[Zn].[Zn].[Zn] (stereo unspecified)	1 (yes)
Clc1ccc(-c2cc(-c3ccccc3)nc(NCCNc3ccnc4cc(Cl)ccc34)n2)cc1	0 (no)

Next compound, please.
Exam item: What is the recorded call for this compound in the test? COC1=CC(c2ccc[nH]2)=N/C1=C\c1[nH]c(C)c(C(=O)CCCCC(=O)Oc2ccc3c(c2)CCC2C3CC[C@]3(C)[C@@H](O)CC[C@@H]23)c1C (stereo partly specified)
Marked response: 0 (no)
